- systemName: HCV NS5B polymerase (His-tagged, C-terminal 21 amino acid deleted NS5B, HC-J4) (Hepatitis C virus genotype 1b, UniProt O92972)
- Construct: The cDNA encoding NS5B amino acid 1-570 (HC-J4, genotype 1b); His tag (His6, from pET-21b) (C); made in house; host or cells: E. coli BL21 (DE3)
- Sequence (O92972 2417-3000, looked up, stated change not applied): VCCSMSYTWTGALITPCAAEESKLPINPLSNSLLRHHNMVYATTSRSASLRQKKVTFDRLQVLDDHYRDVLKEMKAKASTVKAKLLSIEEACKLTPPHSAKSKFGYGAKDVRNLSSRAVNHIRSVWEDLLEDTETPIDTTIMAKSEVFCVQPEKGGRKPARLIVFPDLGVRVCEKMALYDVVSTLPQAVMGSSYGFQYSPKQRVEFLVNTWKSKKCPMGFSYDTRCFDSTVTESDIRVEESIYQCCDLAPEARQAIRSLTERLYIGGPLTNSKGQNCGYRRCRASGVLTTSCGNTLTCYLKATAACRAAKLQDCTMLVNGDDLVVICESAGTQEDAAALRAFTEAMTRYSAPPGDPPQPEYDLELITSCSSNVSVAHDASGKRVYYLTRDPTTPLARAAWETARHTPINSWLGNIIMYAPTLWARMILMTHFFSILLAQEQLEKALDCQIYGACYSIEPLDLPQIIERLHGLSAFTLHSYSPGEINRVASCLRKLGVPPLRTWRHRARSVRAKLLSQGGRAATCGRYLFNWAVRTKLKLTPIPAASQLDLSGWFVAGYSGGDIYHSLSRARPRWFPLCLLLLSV
- assayProcedure: NS5b polymerase assay (biochemical RdRp assay, 3H-GTP incorporation, SPA beads)
- Parameters: species or system HCV genotype 1b
- experimentalConditions: NS5B Polymerase Assay IC50, 200 nM enzyme, 3H-GTP incorporation, 2 h at 25° C.
metricName: IC50

Examples with answers:
> print(dat)
                                   molecule  reportedresult
1  CC(=O)N1c2ccccc2NC2=C(C(=O)CC(C)(C)C2)C1c1ccccn1 (stereo not shown)       > 42.7 µM
2  CCCCCOc1ccc(C2C3=C(CC(C)(C)CC3=O)Nc3ccccc3N2C(=O)c2ccccc2F)cc1 (stereo not shown)       > 42.7 µM
3  CCN(CC)c1ccc(C2C3=C(CC(C)(C)CC3=O)Nc3ccccc3N2C(=O)C(F)(F)F)cc1 (stereo not shown)       > 42.7 µM

Consider the record given below.
Any idea what its IC50 is? The molecule is CC(=O)N1c2ccccc2NC2=C(C(=O)CC(C)(C)C2)C1c1cccnc1 (stereo not shown)
> 42.7 µM

---

melting point listing for selected compounds.

Examples with answers:
> print(dat)
                                   compound  reportedresult
1  CC1(C)CC(=O)C2=C(C1)Nc1ccccc1N(C(=O)C(F)(F)F)C2c1ccc(Cl)cc1Cl (stereo not shown)        > 260 °C
2  CC1(C)CC(=O)C2=C(C1)Nc1ccccc1N(C(=O)c1ccccc1)C2c1ccc(Cl)cc1Cl (stereo not shown)        > 250 °C
3  CC1(C)CC(=O)C2=C(C1)Nc1ccccc1N(C(=O)c1ccco1)C2c1ccc(Cl)cc1Cl (stereo not shown)        > 260 °C

Consider the record given below.
Any idea what its melting point is? The compound is CN(C)c1ccc(NC(=O)N2c3ccccc3NC3=C(C(=O)CC(C)(C)C3)C2c2ccc(Cl)cc2Cl)cc1 (stereo not shown)
238 °C

---

IC50 listing for selected compounds.
- systemName: HCV NS5B polymerase (His-tagged, C-terminal 21 amino acid deleted NS5B, HC-J4) (Hepatitis C virus genotype 1b)
- Construct: The cDNA encoding NS5B amino acid 1-570 (HC-J4, genotype 1b); His tag (His6, from pET-21b) (C); made in house; host or cells: E. coli BL21 (DE3)
- assayProcedure: NS5b polymerase assay (biochemical RdRp assay, 3H-GTP incorporation, SPA beads)
- Set-up: species or system HCV genotype 1b
- experimentalConditions: NS5B Polymerase Assay IC50, 200 nM enzyme, 3H-GTP incorporation, 2 h at 25° C.

> print(dat)
                                   compound  reportedresult
1  CCC(=O)N1c2ccccc2NC2=C(C(=O)CC(c3ccc(C)cc3)C2)C1c1ccc(C)cc1 (stereo not shown)       > 33.3 µM

Any idea what its IC50 is? The compound is CC(=O)N1c2ccccc2NC2=C(C(=O)CC(C)(C)C2)C1c1ccc(F)cc1F (stereo not shown)
2.02 µM

What about this compound? CCCOc1ccccc1C1C2=C(CC(C)(C)CC2=O)Nc2ccccc2N1C(C)=O (stereo not shown)
> 42.7 µM

What about this compound? CCCCC(=O)N1c2ccccc2NC2=C(C(=O)CC(C)(C)C2)C1c1cccs1 (stereo not shown)
> 42.7 µM
